Entries and their BT-474 pAkt (S473) % inhibition
Target: Human HER3, endogenous, on human cancer cell lines (SK-Br-3, MCF7, BT-474) (human, UniProt P21860 20-1342)
Sequence (P21860 20-1342): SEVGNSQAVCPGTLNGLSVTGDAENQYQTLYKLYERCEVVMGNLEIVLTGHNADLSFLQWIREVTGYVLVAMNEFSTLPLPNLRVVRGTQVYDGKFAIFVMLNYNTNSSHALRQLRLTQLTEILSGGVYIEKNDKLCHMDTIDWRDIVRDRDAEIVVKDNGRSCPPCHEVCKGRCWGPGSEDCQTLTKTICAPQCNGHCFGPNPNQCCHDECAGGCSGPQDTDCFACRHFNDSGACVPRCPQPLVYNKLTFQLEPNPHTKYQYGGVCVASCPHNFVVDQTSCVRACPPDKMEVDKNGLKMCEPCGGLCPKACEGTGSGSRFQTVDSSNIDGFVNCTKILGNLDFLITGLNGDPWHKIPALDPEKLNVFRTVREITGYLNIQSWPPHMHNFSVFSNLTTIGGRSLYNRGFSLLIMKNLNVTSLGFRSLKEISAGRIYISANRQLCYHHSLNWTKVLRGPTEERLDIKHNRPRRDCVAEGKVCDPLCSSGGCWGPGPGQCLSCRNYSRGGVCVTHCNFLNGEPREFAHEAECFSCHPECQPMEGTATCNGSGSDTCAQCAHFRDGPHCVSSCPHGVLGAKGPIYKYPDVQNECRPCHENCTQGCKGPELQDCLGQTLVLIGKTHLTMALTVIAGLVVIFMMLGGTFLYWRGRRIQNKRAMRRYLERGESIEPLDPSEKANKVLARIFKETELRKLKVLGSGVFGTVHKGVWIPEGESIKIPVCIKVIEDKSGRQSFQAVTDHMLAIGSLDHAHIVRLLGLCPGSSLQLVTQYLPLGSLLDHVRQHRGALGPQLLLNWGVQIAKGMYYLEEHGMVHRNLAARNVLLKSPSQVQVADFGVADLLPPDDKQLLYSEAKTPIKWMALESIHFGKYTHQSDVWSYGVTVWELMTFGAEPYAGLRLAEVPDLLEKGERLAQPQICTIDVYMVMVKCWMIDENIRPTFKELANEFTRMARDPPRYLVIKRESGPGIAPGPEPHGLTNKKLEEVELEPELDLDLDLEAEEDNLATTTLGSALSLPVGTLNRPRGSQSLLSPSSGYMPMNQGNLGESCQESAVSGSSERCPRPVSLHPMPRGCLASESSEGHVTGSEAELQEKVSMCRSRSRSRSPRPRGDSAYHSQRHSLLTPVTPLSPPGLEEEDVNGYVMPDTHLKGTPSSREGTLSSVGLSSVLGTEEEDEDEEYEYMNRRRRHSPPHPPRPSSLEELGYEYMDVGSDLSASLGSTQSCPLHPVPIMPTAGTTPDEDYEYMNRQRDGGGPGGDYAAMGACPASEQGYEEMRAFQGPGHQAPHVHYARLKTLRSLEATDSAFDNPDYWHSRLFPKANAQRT
Assay: cell-based or functional assay
The response must be a number in % with no trailing unit.

INSERT INTO measurements (binder, recorded_value) VALUES
  ('MOR13755 (antibody, human IgG1, kappa, V domains shown, tested as IgG) VH: QVQLVQSGAEVKKPGESLKISCKGSGYSFTTYWVAWVRQMPGKGLEWMGIIYPGQSDTIYSPSFQGQVTISADKSISTAYLQWSSLKASDTAMYYCARVHIIQPPSAWSYNAMDVWGQGTLVTVSS VL: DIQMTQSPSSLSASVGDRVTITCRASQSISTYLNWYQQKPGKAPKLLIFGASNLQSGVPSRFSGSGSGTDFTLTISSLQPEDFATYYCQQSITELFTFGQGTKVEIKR', 79),
  ('MOR13759 (antibody, human IgG1, kappa, V domains shown, tested as IgG) VH: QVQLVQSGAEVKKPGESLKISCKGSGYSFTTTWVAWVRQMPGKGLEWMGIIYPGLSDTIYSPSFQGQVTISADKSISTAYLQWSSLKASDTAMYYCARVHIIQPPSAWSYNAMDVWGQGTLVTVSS VL: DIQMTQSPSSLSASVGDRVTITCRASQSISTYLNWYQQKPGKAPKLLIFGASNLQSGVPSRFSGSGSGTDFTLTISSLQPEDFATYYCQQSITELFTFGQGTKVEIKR', 81);

Q: For the binder MOR13867 (antibody, human IgG1, kappa, V domains shown, tested as IgG) VH: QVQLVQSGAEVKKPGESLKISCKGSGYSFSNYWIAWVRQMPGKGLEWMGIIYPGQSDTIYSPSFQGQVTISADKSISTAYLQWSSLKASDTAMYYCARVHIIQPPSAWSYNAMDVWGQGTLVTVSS VL: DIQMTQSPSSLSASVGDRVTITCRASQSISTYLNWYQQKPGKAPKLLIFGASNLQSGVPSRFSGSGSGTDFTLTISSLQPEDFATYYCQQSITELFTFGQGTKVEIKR , report BT-474 pAkt (S473) % inhibition.
A: 84

Q: For the binder MOR13758 (antibody, human IgG1, kappa, V domains shown, tested as IgG) VH: QVQLVQSGAEVKKPGESLKISCKGSGYSFTLYWVAWVRQMPGKGLEWMGIIYPGQSDTIYSPSFQGQVTISADKSISTAYLQWSSLKASDTAMYYCARVHIIQPPSAWSYNAMDVWGQGTLVTVSS VL: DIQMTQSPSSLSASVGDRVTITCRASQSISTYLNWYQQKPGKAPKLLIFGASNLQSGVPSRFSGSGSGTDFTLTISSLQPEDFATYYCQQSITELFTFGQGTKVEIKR , report BT-474 pAkt (S473) % inhibition.
A: 78

Q: For the binder MOR13871 (antibody, human IgG1, kappa, V domains shown, tested as IgG) VH: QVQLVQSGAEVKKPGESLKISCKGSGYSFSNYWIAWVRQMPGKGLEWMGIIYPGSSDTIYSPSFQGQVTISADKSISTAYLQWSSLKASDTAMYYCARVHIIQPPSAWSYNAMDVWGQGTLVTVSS VL: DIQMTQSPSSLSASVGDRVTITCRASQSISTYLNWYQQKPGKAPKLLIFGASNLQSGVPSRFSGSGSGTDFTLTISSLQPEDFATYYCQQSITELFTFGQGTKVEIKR , report BT-474 pAkt (S473) % inhibition.
A: 83
